tested on: Drosophila S2 cl14 SmoIP sensor cells; assay: normalized SmoIP GFP fluorescence (untreated unstimulated = 0%, untreated Hh-stimulated = 100%); higher = more Smo activation sensor fluorescence; settings: stimulation: mock conditioned medium (-Hh); compound concentration: 2 uM; 24 h
For each of the compounds below, state its normalized SmoIP GFP fluorescence.
The reply should be a number in %, with the unit left off.

Incoming: Complete the entry with normalized SmoIP GFP fluorescence for O=[N+]([O-])c1ccc2c(c1)S(=O)(=O)C=C2
Outgoing: -1.74

Incoming: Please indicate normalized SmoIP GFP fluorescence recorded for Oc1cc(O)c(Cl)cn1
Outgoing: -6.97

Incoming: // fetch normalized SmoIP GFP fluorescence given entry CNC(=O)c1cc(Oc2ccc(NC(=O)Nc3ccc(Cl)c(C(F)(F)F)c3)cc2)ccn1 [Sorafenib-Tosylate]
Outgoing: 47.1

Incoming: Given the compound N[C@H]1C[C@@H]1c1ccc(-c2cccc(O)c2)cc1 , write its reported normalized SmoIP GFP fluorescence.
Outgoing: -4.81

Incoming: Determine its reported normalized SmoIP GFP fluorescence: CCOC(=O)c1ccc(OC(=O)CCCCCNC(=N)N)cc1 [gabexate-mesylate]
Outgoing: -12.6

---

test system: Drosophila S2 cl14 SmoIP sensor cells; test: normalized SmoIP GFP fluorescence (untreated unstimulated = 0%, untreated Hh-stimulated = 100%); higher = more Smo activation sensor fluorescence; conditions: stimulation: Hh conditioned medium (+Hh); compound concentration: 2 uM; 24 h
PARAMETER: normalized SmoIP GFP fluorescence
In your response, the unit should come after the numeric value.

Incoming: For the molecule O=c1cc(-c2ccccc2)oc2cc(O)c(O)c(O)c12 , give its reported normalized SmoIP GFP fluorescence.
Outgoing: 108%

Incoming: Read the entry COc1ccc(C2CNC(=O)C2)cc1OC1CCCC1 (stereo not given) and write its reported normalized SmoIP GFP fluorescence.
Outgoing: 92.5%

Incoming: Specify normalized SmoIP GFP fluorescence for CC(C)(C)c1cc(C(C)(C)C)c(NC(=O)c2c[nH]c3ccccc3c2=O)cc1O and stop.
Outgoing: -31.6%

Incoming: Assign normalized SmoIP GFP fluorescence to the following record: CNCc1cc(-c2ccccc2F)n(S(=O)(=O)c2cccnc2)c1
Outgoing: 126%

Incoming: Please report normalized SmoIP GFP fluorescence for the following molecule: O=C(CCCS)NC1CCN(C(=O)COc2ccc(Cl)cc2Cl)CC1 [k-ras-g12c-inhibitor-6]
Outgoing: 113%

---

test system: Drosophila S2 cl14 SmoIP sensor cells; test: normalized SmoIP GFP fluorescence (untreated unstimulated = 0%, untreated Hh-stimulated = 100%); higher = more Smo activation sensor fluorescence; settings: stimulation: Hh conditioned medium (+Hh); compound concentration: 2 uM; 24 h
Counter-ions that a name gives are not always drawn.
PARAMETER: normalized SmoIP GFP fluorescence
Put down the number, then write its unit next to it.

Incoming: Please look at CNC(=O)c1ccc2cc([C@@]3(O)CCn4cncc43)ccc2c1 and tell me its recorded normalized SmoIP GFP fluorescence on Drosophila S2 cl14 SmoIP sensor cells.
Outgoing: 104%

Incoming: Give normalized SmoIP GFP fluorescence; test system Drosophila S2 cl14 SmoIP sensor cells; compound OC[C@@H](O)CN1CCN(c2ccccc2)CC1
Outgoing: 94.5%

Incoming: Lab note: record normalized SmoIP GFP fluorescence of C#CCN[C@@H]1CCc2ccccc21 [rasagiline-mesylate] tested on Drosophila S2 cl14 SmoIP sensor cells.
Outgoing: 120%

Incoming: Enter measured normalized SmoIP GFP fluorescence, system Drosophila S2 cl14 SmoIP sensor cells, for the compound shown: Cc1ccc2c(c1)C(=O)C1(O)CCN(c3ccccc3)C1=N2 (centres undefined)
Outgoing: 105%

Incoming: Lab note: Drosophila S2 cl14 SmoIP sensor cells assay, enter normalized SmoIP GFP fluorescence for O=C(CCCCCCC(=O)Nc1ccccc1)NO [Vorinostat-(SAHA)] here
Outgoing: 89.9%

Incoming: Please tell me the measured normalized SmoIP GFP fluorescence for NC(=O)c1ncn([C@@H]2O[C@H](CO)[C@@H](O)[C@H]2O)c1N ; system: Drosophila S2 cl14 SmoIP sensor cells.
Outgoing: 127%

Incoming: Enter measured normalized SmoIP GFP fluorescence, system Drosophila S2 cl14 SmoIP sensor cells, for the compound shown: CC(C)c1cnn2c(NCc3ccccc3)cc(NCCCCCCN)nc12
Outgoing: 105%

Incoming: GET normalized SmoIP GFP fluorescence | system: Drosophila S2 cl14 SmoIP sensor cells | item: CCCCNc1ccc(C(=O)OCCN(C)C)cc1 [tetracaine-hydrochloride-pontocaine]
Outgoing: 117%

Incoming: Lab note: record normalized SmoIP GFP fluorescence of O=C(Nc1cccnc1)N1CCC(Cc2cccc(Oc3ccc(C(F)(F)F)cn3)c2)CC1 tested on Drosophila S2 cl14 SmoIP sensor cells.
Outgoing: 116%

Incoming: Fetch value of normalized SmoIP GFP fluorescence on Drosophila S2 cl14 SmoIP sensor cells for CCOC(=O)c1ccc(OC(=O)CCCCCNC(=N)N)cc1 [gabexate-mesylate] .
Outgoing: 120%

Incoming: // output normalized SmoIP GFP fluorescence; input CN1C2CCCC1CC(NC(=O)c1nn(C)c3ccccc13)C2 (centres undefined) [Granisetron-Hydrochloride] ; system Drosophila S2 cl14 SmoIP sensor cells
Outgoing: 103%

Incoming: Write normalized SmoIP GFP fluorescence of C=CC(=O)Nc1cccc(Nc2nc(Nc3ccc(N4CCN(C(C)=O)CC4)cc3OC)ncc2C(F)(F)F)c1 ; system used: Drosophila S2 cl14 SmoIP sensor cells
Outgoing: 61.9%

Incoming: Give normalized SmoIP GFP fluorescence; test system Drosophila S2 cl14 SmoIP sensor cells; compound CCCCOc1ccc(CC(=O)NO)cc1
Outgoing: 98.6%

Incoming: System Drosophila S2 cl14 SmoIP sensor cells. Read-out normalized SmoIP GFP fluorescence. Item Cc1cc(-c2ccc(CC(=O)Nc3ccc(-c4cccnc4)cc3)cc2)ccn1 . Report value.
Outgoing: 247%

Incoming: Look up and report normalized SmoIP GFP fluorescence, with Drosophila S2 cl14 SmoIP sensor cells as system, for O=C(O)c1ccc(N2C(=O)/C(=C\c3ccc(-c4ccc([N+](=O)[O-])cc4)o3)C=C2c2ccccc2)cc1
Outgoing: 105%

Incoming: Give Drosophila S2 cl14 SmoIP sensor cells normalized SmoIP GFP fluorescence for the following compound: CCCCCCCN(CC)CCCC(O)c1ccc(NS(C)(=O)=O)cc1 (centres undefined) [ibutilide-fumarate]
Outgoing: 108%

Incoming: Give normalized SmoIP GFP fluorescence for CC(=O)Oc1cc(C(F)(F)F)ccc1C(=O)O tested on Drosophila S2 cl14 SmoIP sensor cells.
Outgoing: 111%

Incoming: Supply normalized SmoIP GFP fluorescence measured with Drosophila S2 cl14 SmoIP sensor cells for Cc1cc(O)c2c(c1)C(=O)c1cccc(O)c1C2=O .
Outgoing: 133%

Incoming: Retrieve normalized SmoIP GFP fluorescence on Drosophila S2 cl14 SmoIP sensor cells; query Cc1ccc(=O)n(-c2ccccc2)c1
Outgoing: 107%

---

test system: Drosophila S2 cl14 SmoIP sensor cells; experiment: normalized SmoIP GFP fluorescence (untreated unstimulated = 0%, untreated Hh-stimulated = 100%); higher = more Smo activation sensor fluorescence; conditions: stimulation: Hh conditioned medium (+Hh); compound concentration: 2 uM; 24 h;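 further: flow cytometry read-out as median GFP intensity of gated cells, compounds added 30 min before Hh-conditioned or mock medium, mock-treated cells serving as unstimulated baseline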
Where a name gives a salt, the structure may show the parent alone.
PARAMETER: normalized SmoIP GFP fluorescence (%)
State just the number; it will be interpreted in %.

Incoming: Find the measured normalized SmoIP GFP fluorescence of Cc1nnc(C(C)C)n1C1C[C@H]2CC[C@@H](C1)N2CC[C@H](NC(=O)C1CCC(F)(F)CC1)c1ccccc1 (stereo in doubt) and report it.
Outgoing: 122

Incoming: Please supply the value of reported normalized SmoIP GFP fluorescence for the item C=C(C)[C@@H]1CC[C@]2(C(=O)O)CC[C@]3(C)[C@H](CC[C@@H]4[C@@]5(C)CC[C@H](O)C(C)(C)[C@@H]5CC[C@]43C)[C@@H]12
Outgoing: 97

Incoming: Please indicate normalized SmoIP GFP fluorescence recorded for CCCC(=O)Nc1ccc(OCC(O)CNC(C)C)c(C(C)=O)c1 (stereo not drawn) [acebutolol-hcl]
Outgoing: 106

Incoming: Tell me normalized SmoIP GFP fluorescence reported for CCC(C)(Oc1ccc(C2(c3ccc(OC(C)(CC)C(=O)O)cc3)CCCCC2)cc1)C(=O)O (stereo not drawn) [clinofibrate]
Outgoing: 131

Incoming: Read the entry NCCc1c[nH]cn1 [histamine-2hcl] and write its reported normalized SmoIP GFP fluorescence.
Outgoing: 104

Incoming: Determine its reported normalized SmoIP GFP fluorescence: NC(N)=N/N=C/c1c(Cl)cccc1Cl [guanabenz-wy-8678-acetate]
Outgoing: 112

Incoming: Give the measured normalized SmoIP GFP fluorescence for NC(=O)c1cccc(-c2cccc(OC(=O)NC3CCCCC3)c2)c1
Outgoing: 134

Incoming: // fetch normalized SmoIP GFP fluorescence given entry Cc1ccc(C(=O)NCCCCCC(=O)Nc2ccccc2N)cc1
Outgoing: 101

Incoming: Specify measured normalized SmoIP GFP fluorescence for CN(C)C1CCN(C(=O)c2ccc(NC(=O)Nc3ccc(-c4nc(N5CCOCC5)nc(N5CCOCC5)n4)cc3)cc2)CC1 .
Outgoing: 53

Incoming: Determine its reported normalized SmoIP GFP fluorescence: Cc1cnc(-c2cc(N3CCN(C(=O)CCS(C)(=O)=O)CC3)ncc2Cl)c(C)c1
Outgoing: 102

Incoming: Supply recorded normalized SmoIP GFP fluorescence for CN1CCN(C(=O)c2cc3cc(Cl)ccc3[nH]2)CC1 here.
Outgoing: 101

Incoming: Answer with the recorded normalized SmoIP GFP fluorescence for the compound listed here: O=c1ncccn1[C@@H]1O[C@H](CO)[C@@H](O)[C@H]1O
Outgoing: 108

Incoming: Please report normalized SmoIP GFP fluorescence for the following compound: Cc1cc(C(C)Nc2ccccc2)c2nc(N3CCOCC3)cc(=O)n2c1 (stereo not drawn)
Outgoing: 126

Incoming: Give reported normalized SmoIP GFP fluorescence value for CS(=O)(=O)CCNCc1ccc(-c2ccc3ncnc(Nc4ccc(OCc5cccc(F)c5)c(Cl)c4)c3c2)o1 [Lapatinib-Ditosylate]
Outgoing: 253

Incoming: Fill in reported normalized SmoIP GFP fluorescence for this entry: Cc1c(C(=O)Nc2ccc(N3C[C@@H](C)O[C@@H](C)C3)nc2)cccc1-c1ccc(OC(F)(F)F)cc1
Outgoing: 114

Incoming: Fill in reported normalized SmoIP GFP fluorescence for this entry: COc1cc2ncnc(Nc3ccc(F)c(Cl)c3)c2cc1OCCCN1CCOCC1
Outgoing: 116

Incoming: Output measured normalized SmoIP GFP fluorescence for this item: CCC[C@H](NC(=O)/C(C#N)=C/c1cccc(Br)n1)c1ccccc1
Outgoing: 114

Incoming: Provide only the value of recorded normalized SmoIP GFP fluorescence for COC(=O)c1ccc2c(c1)NC(=O)/C2=C(\Nc1ccc(N(C)C(=O)CN2CCN(C)CC2)cc1)c1ccccc1
Outgoing: 108
